Target: HLA-B*40:02
Test: IEDB peptide-MHC binding, purified MHC/competitive/fluorescence; bounds were set here for any values at or beyond the usual limits of such assays
Conditions: source organism: Homo sapiens

Sequence record | IC50
ILNRETLLDFV | 995 nM

###

Each entry below lists one item and its recorded pKd value.
Target: HLA-A*33:01
Assay: IEDB peptide-MHC binding, purified MHC/competitive/radioactivity; filed as Kd, often an IC50 or EC50 that approximates it; bounds were set here for any values at or beyond the usual limits of such assays
Details: source organism: Dengue virus 4 Philippines/H241/1956
pKd: −log10 of the molar value.

Sequence record | pKd
IVMLHTTER | 7.86
DMISYGGGWR | 6.30
DFKEFASGR | 8.65
TAMAFHLSTR | 7.78

###

Target: HLA-A*02:01
Experiment: IEDB peptide-MHC binding, purified MHC/competitive/radioactivity; filed as Kd, often an IC50 or EC50 that approximates it; bounds were set here for any values at or beyond the usual limits of such assays
Conditions: source organism: Hepatitis B virus

Sequence record | Target | Kd
SIVSPFIPLL | HLA-A*02:01 | ≥ 25 µM

###

Biological target: HLA-B*27:03
Assay: IEDB peptide-MHC binding, purified MHC/competitive/fluorescence; filed as Kd, often an IC50 or EC50 that approximates it; bounds were set here for any values at or beyond the usual limits of such assays
Conditions: source organism: Vibrio vulnificus

Sequence record | Kd
DEWECTRDD | ≥ 20 µM

###

Molecular target: HLA-C*04:01
Test: IEDB peptide-MHC binding, purified MHC/direct/fluorescence; filed as Kd, often an IC50 or EC50 that approximates it; bounds were set here for any values at or beyond the usual limits of such assays
Conditions: source organism: Escherichia coli O139:H28 str. E24377A

Sequence record | Kd
YMWECPDFF | 0.137 µM

###

Consider the following sequences and their measured Kd readings.
Biological target: HLA-A*33:01
Experiment: IEDB peptide-MHC binding, purified MHC/competitive/radioactivity; filed as Kd, often an IC50 or EC50 that approximates it; bounds were set here for any values at or beyond the usual limits of such assays
Details: source organism: Lassa virus Josiah

Sequence record | Comparative sign | Kd (µM)
TCQGSDDIRK | ≥ | 70
FCKSCWFENK | = | 9.19

###

Documented pIC50 across a set of sequences
Biological target: HLA-B*08:01
Assay: IEDB peptide-MHC binding, purified MHC/competitive/fluorescence; bounds were set here for any values at or beyond the usual limits of such assays
Conditions: source organism: Zaire ebolavirus
pIC50: −log10 of the molar value.
Measured metric: pIC50

Sequence record | Measured metric | Measured value
HILQKTERG | pIC50 | ≤ 3.44
EVKKRDGVK | pIC50 | ≤ 3.68
YHMMKDEPV | pIC50 | ≤ 3.75

###

Biological target: HLA-A*24:02
Experiment: IEDB peptide-MHC binding, purified MHC/competitive/fluorescence; filed as Kd, often an IC50 or EC50 that approximates it; bounds were set here for any values at or beyond the usual limits of such assays
Conditions: source organism: Influenza A virus (A/swine/Korea/Hongsong2/2004(H1N2))
pKd: −log10 of the molar value.
Measured metric: pKd

Sequence record | Measured value
SFYKNLIW | 6.86

###

Target: HLA-A*31:01
Assay: IEDB peptide-MHC binding, purified MHC/competitive/radioactivity; filed as Kd, often an IC50 or EC50 that approximates it; bounds were set here for any values at or beyond the usual limits of such assays
Settings: source organism: SARS coronavirus Tor2
Measured metric: Kd

Sequence record | Measured metric | Measured value
TTTIKPVSYK | Kd | 1460 nM
TVAYFNMVY | Kd | ≥ 56900 nM
WFSQRGGSYK | Kd | 178 nM
CLFDRYFKY | Kd | 215 nM
DTVWEVQGYK | Kd | 7500 nM
NLCTHSFRK | Kd | 13600 nM
AVIIRGHLR | Kd | 136 nM
VLHDIGNPK | Kd | 1960 nM
GVIRSIFAR | Kd | 1.02 nM
AQALNTLVK | Kd | 3640 nM
NATFFIFNK | Kd | 1710 nM
